Biological target: pyocin L1 (Pseudomonas aeruginosa, UniProt T2LG16)
Construct: full length, 256 residues, 28413 Da; expressed in E. coli BL21(DE3)pLysS (pETPyoL1); monomer
Sequence (T2LG16 1-256): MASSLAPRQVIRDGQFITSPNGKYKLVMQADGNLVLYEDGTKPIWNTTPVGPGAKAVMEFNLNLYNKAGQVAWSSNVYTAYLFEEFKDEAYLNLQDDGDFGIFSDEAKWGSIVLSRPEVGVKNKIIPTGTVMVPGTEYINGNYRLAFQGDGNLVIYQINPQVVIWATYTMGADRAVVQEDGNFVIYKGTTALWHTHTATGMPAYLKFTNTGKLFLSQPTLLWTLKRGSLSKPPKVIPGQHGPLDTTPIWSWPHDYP
Type: binding
Conditions: read-out: apparent Kd
pKd: −log10 of the molar value.
Assay readout: pKd

Task: Given C[C@H]1OC(O)[C@@H](O)[C@@H](O)[C@@H]1O (stereo partly shown) , state its recorded pKd.
Output: 2.00 to 2.30

====

Molecular target: pyocin L1 (Pseudomonas aeruginosa)
Construct: full length, 256 residues, 28413 Da; expressed in E. coli BL21(DE3)pLysS (pETPyoL1); monomer
Format: binding
Conditions: read-out: Kd
Assay readout: Kd

Task: Given OC[C@H]1OC(O)[C@@H](O)[C@@H](O)[C@@H]1O (stereo partly shown) , state its recorded Kd.
Output: > 50 mM

Value source: paper PMC3916391
